- System: Escherichia coli
- test protocol: Antibacterial activity against Escherichia coli BL21 AI after 20 hrs by broth microdilution assay
- Format: functional
Under this convention, satisfied denotes MIC strictly below 30 µg/mL and not satisfied denotes MIC at or above 30 µg/mL.

Sample answers from the record:
substance: H-VDKPPYLPRPTPPRRIYNNR-OH
assay system: Escherichia coli
class assignment: not satisfied
--
substance: H-VDKPPYLPRPPPPRRIYNNR-OH
assay system: Escherichia coli
class assignment: not satisfied
--
substance: H-VDKPPYLPRPRPPRRIYNNR-NH2
assay system: Escherichia coli
class assignment: satisfied
--
substance: H-VDKPPYLPRPRPPRRIYNR-OH
assay system: Escherichia coli
class assignment: not satisfied
--
substance: H-VDKPPYLPRPKPPRRIYNNR-OH
assay system: Escherichia coli
class assignment: satisfied

Task item: Determine whether this substance shows MIC lower than 30 µg/mL (ties excluded): H-VDKPPYLPRPRPPRRIYNRN-NH2
Reply: satisfied

Task item: Hi there! Is MIC for H-VDKPPYLPRPHPPRRIYNNR-OH below 30 µg/mL, do you know?
Reply: not satisfied

Task item: Quick check: MIC of H-VDKPPYLPRPRPPRRIYNNR-OH under 30 µg/mL?
Reply: satisfied

Task item: # TODO verify MIC < 30 µg/mL strictly for this substance: H-VDKPPYLPRPRPPRRIYNRN-OH
Reply: satisfied

Task item: Please let me know if H-VDKPPYLPRPRPPRRIYNR-NH2 [ONCOCIN] shows MIC below 30 µg/mL.
Reply: satisfied

Task item: Determine if H-VDKPPYLPRPRPPRRIYN-OH shows MIC strictly lower than 30 µg/mL.
Reply: not satisfied
